These measurements were taken from patent US20260167622A1.

Target: KRAS G12C protein in NCI-H358 cells (Homo sapiens, UniProt P01116, G12C)
Construct: endogenous in cells; host or cells: NCI-H358
Sequence (P01116 1-188 isoform P01116-2 G12C): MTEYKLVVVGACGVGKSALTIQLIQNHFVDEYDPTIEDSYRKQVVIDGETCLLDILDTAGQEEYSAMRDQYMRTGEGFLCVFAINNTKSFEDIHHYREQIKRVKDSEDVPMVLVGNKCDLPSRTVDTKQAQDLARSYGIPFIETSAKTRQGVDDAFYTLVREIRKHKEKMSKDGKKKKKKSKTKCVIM
Assay: KRAS degradation assay (Western Blot) in NCI-H358 cells
Type: cell-based
Conditions: 24 h
Description: Test Example 5: KRAS G12C, KRAS G12D, KRAS G12V, KRAS G13D, and KRAS WT (Expanded) Degradation Assays […] After the samples of the cell lysate supernatants that had been prepared were thawed from the refrigerator at −80° C., the total protein concentrations of the cell lysates were determined using a BCA protein quantification kit (Tiangen). […]
For each of the compounds below, state its DC50.
Give bare numbers, in nM.

Example entries and their recorded answers appear below.
{"structure-smiles": "C#Cc1c(F)ccc2cc(O)cc(-c3ncc4c(N5CCC[C@@](C)(O)C5)nc(OC[C@H](C)CN5CCN(CC6CCC7(CC6)CCN(C(=O)c6ccc(C)c(N8CCC(=O)NC8=O)c6)CC7)CC5)nc4c3F)c12", "DC50 (nM)": 1.7}
{"structure-smiles": "[2H]C([2H])([2H])Oc1ccc(C(=O)N2CCC3(CCC(CN4CCN(CC5(COc6nc(N7CCC[C@@](C)(O)C7)c7cnc(-c8cc(O)cc9ccc(F)c(C#C)c89)c(F)c7n6)CC5)CC4)CC3)CC2)cc1N1CCC(=O)NC1=O", "DC50 (nM)": 2.65}

Now examine the next entry.
Task: // DC50 lookup, key: [2H]C([2H])([2H])Oc1ccc(C(=O)N2CCC3(CCC(CN4CCN(C[C@@H](C)COc5nc(N6CCC[C@@](C)(O)C6)c6cnc(-c7cc(O)cc8ccc(F)c(C#C)c78)c(F)c6n5)CC4)CC3)CC2)cc1N1CCC(=O)NC1=O
Output: 1.11

---

Target: KRAS G12V protein in SW900 cells (Homo sapiens, UniProt P01116, G12V)
Construct: endogenous in cells; host or cells: SW900
Sequence (P01116 1-188 isoform P01116-2 G12V): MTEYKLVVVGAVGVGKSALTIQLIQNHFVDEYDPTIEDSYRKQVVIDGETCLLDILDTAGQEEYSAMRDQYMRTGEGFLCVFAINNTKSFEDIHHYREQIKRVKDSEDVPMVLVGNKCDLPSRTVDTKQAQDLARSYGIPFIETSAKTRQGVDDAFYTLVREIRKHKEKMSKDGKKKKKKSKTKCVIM
Experiment: KRAS degradation assay (Western Blot) in SW900 cells
Type: cell-based
Conditions: 24 h
property-name: Dmax

Example entries and their recorded answers appear below.
{"compound": "C#Cc1cccc2cc(O)cc(-c3ncc4c(N5CCC[C@@](C)(O)C5)nc(OCC5(CN6CCN(CC7CCC8(CC7)CCN(C(=O)c7ccc(C)c(N9CCC(=O)NC9=O)c7)CC8)CC6)CC5)nc4c3F)c12 [Example 27]", "Dmax": "80 to 100%"}
{"compound": "C#Cc1c(F)ccc2cc(O)cc(-c3ccc4c(N5CCC[C@@](C)(O)C5)nc(OCC5(CN6CCN(CC7CCC8(CC7)CCN(C(=O)c7ccc(C)c(N9CCC(=O)NC9=O)c7)CC8)CC6)CC5)nc4c3F)c12 [Example 41]", "Dmax": "80 to 100%"}
{"compound": "CCc1cccc2cc(O)cc(-c3ccc4c(N5CCC[C@@](C)(O)C5)nc(OCC5(CN6CCN(CC7CCC8(CC7)CCN(C(=O)c7ccc(Cl)c(N9CCC(=O)NC9=O)c7)CC8)CC6)CC5)nc4c3F)c12 [Example 12]", "Dmax": "80 to 100%"}

Give one value of Dmax per listed compound.
1. C#Cc1c(F)ccc2cc(O)cc(-c3ncc4c(N5CCC[C@@](C)(O)C5)nc(OCC5(CN6CCN(CCC#CC7CCN(C(=O)c8ccc(Cl)c(N9CCC(=O)NC9=O)c8)CC7)CC6)CC5)nc4c3F)c12 [Example 43]
2. C#Cc1c(F)ccc2cc(O)cc(-c3ncc4c(NC(C)(C)C)nc(OCC5(CN6CCN(CC7CCC8(CC7)CCN(C(=O)c7ccc(OC)c(N9CCC(=O)NC9=O)c7)CC8)CC6)CC5)nc4c3F)c12 [Example 32]

Output:
["80 to 100%", "50 to 80%"]

---

Biological target: KRAS G12D protein in AsPc-1 cells (Homo sapiens, UniProt P01116, G12D)
Construct: endogenous in cells; host or cells: AsPc-1
Sequence (P01116 1-188 isoform P01116-2 G12D): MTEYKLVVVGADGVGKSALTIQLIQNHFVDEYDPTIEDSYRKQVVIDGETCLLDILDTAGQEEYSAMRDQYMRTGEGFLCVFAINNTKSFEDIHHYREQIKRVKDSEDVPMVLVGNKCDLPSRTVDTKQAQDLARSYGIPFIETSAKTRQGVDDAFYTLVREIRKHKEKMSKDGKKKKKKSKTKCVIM
Assay: KRAS degradation assay (Western Blot) in AsPc-1 cells
Type: cell-based
Settings: 24 h
For each of the compounds below, state its DC50.
One number for each entry, in nM.

{"compound": "CCc1cccc2cc(O)cc(-c3ccc4c(N5CCC[C@@](C)(O)C5)nc(OCC5(CN6CCN(CC7CCC8(CC7)CCN(C(=O)c7ccc(C)c(N9CCC(=O)NC9=O)c7)CC8)CC6)CC5)nc4c3F)c12 [Example 49]", "DC50 (nM)": 822}
{"compound": "[2H]C([2H])([2H])Oc1ccc(C(=O)N2CCC3(CCC(CN4CCN(C[C@@H](C)COc5nc(N6CCC[C@@](C)(O)C6)c6cnc(-c7cc(O)cc8ccc(F)c(C#C)c78)c(F)c6n5)CC4)CC3)CC2)cc1N1CCC(=O)NC1=O [Example 164]", "DC50 (nM)": 5.91}
{"compound": "C#Cc1c(F)ccc2cc(O)cc(-c3ncc4c(N5CCCC(C)(N)C5)nc(OCC5(CN6CCN(CC7CCC8(CC7)CCN(C(=O)c7ccc(OC)c(N9CCC(=O)NC9=O)c7)CC8)CC6)CC5)nc4c3F)c12 (stereo not drawn) [Example 163]", "DC50 (nM)": 185}
{"compound": "C#Cc1c(F)ccc2cc(O)cc(-c3ncc4c(N5CCOCC(C)(O)C5)nc(OCC5(CN6CCN(CC7CCC8(CC7)CCN(C(=O)c7ccc(OC)c(N9CCC(=O)NC9=O)c7)CC8)CC6)CC5)nc4c3F)c12 (stereo not drawn) [Example 165]", "DC50 (nM)": 13.4}
{"compound": "[2H]C([2H])([2H])Oc1ccc(C(=O)N2CCC3(CCC(CN4CCN(CC5(COc6nc(N7CCC[C@@](C)(O)C7)c7cnc(-c8cc(O)cc9ccc(F)c(C#C)c89)c(F)c7n6)CC5)CC4)CC3)CC2)cc1N1CCC(=O)NC1=O [Example 170]", "DC50 (nM)": 5.53}

Task: Form entry - test system: KRAS G12D protein in AsPc-1 cells (Homo sapiens, UniProt P01116, G12D); read-out: DC50; compound: C#Cc1c(F)ccc2cc(O)cc(-c3ncc4c(N(C)[C@H]5C[C@@H]5F)nc(OC[C@H](C)CN5CCN(CC6CCC7(CC6)CCN(C(=O)c6ccc(OC)c(N8CCC(=O)NC8=O)c6)CC7)CC5)nc4c3F)c12 [Example 50]
Output: 167

---

For each of the molecules below, state its Dmax.
Biological target: KRAS G12V protein in SW900 cells (Homo sapiens, UniProt P01116, G12V)
Construct: endogenous in cells; host or cells: SW900
Assay: KRAS degradation assay (Western Blot) in SW900 cells
Assay type: cell-based
Conditions: 24 h

Example entries and their recorded answers appear below.
{"structure-smiles": "CCc1cccc2cc(O)cc(-c3ncc4c(N5CCC[C@@](C)(O)C5)nc(OCC5(CN6CCN(CC7CCC8(CC7)CCN(C(=O)c7ccc(C)c(N9CCC(=O)NC9=O)c7)CC8)CC6)CC5)nc4c3F)c12", "tested-system": "KRAS G12V protein in SW900 cells (Homo sapiens, UniProt P01116, G12V)", "readout-value": "80 to 100%"}
{"structure-smiles": "C#Cc1c(F)ccc2cc(O)cc(-c3ncc4c(N5CCCOCC5)nc(OCC5(CN6CCN(CC7CCC8(CC7)CCN(C(=O)c7ccc(C)c(N9CCC(=O)NC9=O)c7)CC8)CC6)CC5)nc4c3F)c12", "tested-system": "KRAS G12V protein in SW900 cells (Homo sapiens, UniProt P01116, G12V)", "readout-value": "80 to 100%"}
{"structure-smiles": "C#Cc1c(F)ccc2cc(O)cc(-c3ncc4c(NC5CC5)nc(OCC5(CN6CCN(CC7CCC8(CC7)CCN(C(=O)c7ccc(OC)c(N9CCC(=O)NC9=O)c7)CC8)CC6)CC5)nc4c3F)c12", "tested-system": "KRAS G12V protein in SW900 cells (Homo sapiens, UniProt P01116, G12V)", "readout-value": "50 to 80%"}
{"structure-smiles": "CCc1c(F)ccc2cc(O)cc(-c3ncc4c(N5CCC[C@@](C)(O)C5)nc(OCC5(CN6CCC(CCOCC7CCN(C(=O)c8ccc(Cl)c(N9CCC(=O)NC9=O)c8)CC7)CC6)CC5)nc4c3F)c12", "tested-system": "KRAS G12V protein in SW900 cells (Homo sapiens, UniProt P01116, G12V)", "readout-value": "80 to 100%"}

Now examine the next entry.
Task: // Dmax lookup, key: C#Cc1c(F)ccc2cc(O)cc(-c3ccc4c(N5CCC[C@@](C)(O)C5)nc(OCC5(CN6CCC(CCOCC7CCN(C(=O)c8ccc(C)c(N9CCC(=O)NC9=O)c8)CC7)CC6)CC5)nc4c3F)c12
Output: 80 to 100%

---

For each of the compounds below, state its Dmax.
Biological target: KRAS G12V protein in SW900 cells (Homo sapiens, UniProt P01116, G12V)
Construct: endogenous in cells; host or cells: SW900
Test: KRAS degradation assay (Western Blot) in SW900 cells
Type: cell-based
Conditions: 24 h

Give one value of Dmax per listed compound.
1. C#Cc1cccc2cc(O)cc(-c3ncc4c(N5CCC[C@@](C)(O)C5)nc(OCC5(CN6CCC(CCOCC7CCN(C(=O)c8ccc(OC)c(N9CCC(=O)NC9=O)c8)CC7)CC6)CC5)nc4c3F)c12
2. C#Cc1c(F)ccc2cc(O)cc(-c3ncc4c(N5CCOCC(C)(O)C5)nc(OCC5(CN6CCN(CC7CCC8(CC7)CCN(C(=O)c7ccc(OC)c(N9CCC(=O)NC9=O)c7)CC8)CC6)CC5)nc4c3F)c12 (stereo not drawn)
3. C#Cc1c(F)ccc2cc(O)cc(-c3ncc4c(N5CCC[C@@](C)(O)C5)nc(OCC5(CN6CCC(CN(C)CCC7CCN(C(=O)c8ccc(Cl)c(N9CCC(=O)NC9=O)c8)CC7)CC6)CC5)nc4c3F)c12

Output:
1. 80 to 100%
2. 100%
3. 50 to 80%
